- protocol-notes: plasmodial surface anion channel blockers, osmotic lysis – cell-based, P. falciparum Indochina, OD700, 2 h, primary screen (AID 1155);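 note: lysis reports solute entry through the parasite surface anion channel PSAC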
- experimental-parameters: P. falciparum Indochina infected erythrocytes, called active from +8 up or from −8 down
Active and inactive are the calls of the source.
Possible outcomes: active, inactive

* O=C1O[C@@H](c2ccccc2)[C@@H](c2ccccc2)N2[C@@H](c3ccc(OCCO)cc3)[C@]3(C(=O)Nc4ccc(C#CC5=CCCCC5)cc43)[C@@H](C(=O)N3CCCCCCC3)[C@H]12 | inactive
* C=CCNC(=O)[C@H]1[C@@H]2C(=O)O[C@@H](c3ccccc3)[C@@H](c3ccccc3)N2[C@@H](c2ccc(O)cc2)[C@]12C(=O)Nc1ccc(C#CCCO)cc12 | inactive
* C=CCNC(=O)[C@H]1[C@@H]2C(=O)O[C@@H](c3ccccc3)[C@@H](c3ccccc3)N2[C@@H](c2ccc(OCCO)cc2)[C@]12C(=O)Nc1ccc(C#CCC(C(=O)OC)C(=O)OC)cc12 | inactive
* O=C(NCc1ccccc1)[C@@H]1c2ccccc2C(=O)N(C2Cc3ccccc3C2)[C@H]1c1ccc(CO)cc1 | inactive
* C=C[C@H](C)[C@@H](OC(=O)Nc1ccc(SC)cc1)c1ccc(O)c2ccccc12 | active
* COCCCNC(=O)[C@@H]1c2ccccc2C(=O)N(Cc2ccccc2)[C@H]1c1ccc(CO)cc1 | inactive
* CC(C)[Si](C#C[Si](C(C)C)(C(C)C)C(C)C)(O[C@H](C)c1cn(Cc2ccccc2)nn1)C(C)C | inactive
* C[N+](C)(C)CCCC[C@@H]1NC(=O)[C@@H]2C[C@H](C(=O)NCCCCCN)[C@H](c3ccc(O)cc3)N2C1=O | inactive
* [N-]=[N+]=Nc1ccccc1C[C@@]1(C(=O)N2CCCCC2)N=C(c2ccc(OCCCO)cc2)O[C@@H]1c1ccccc1N=[N+]=[N-] | active
* CC(C)CCC[C@@H](C)[C@H]1CC[C@@]2(C)C3=C(CC[C@]12C)[C@@]1(C)CC[C@H](OC(=O)c2ccc(C(F)(F)F)nc2)C(C)(C)C1CC3 (stereo not given in full) | inactive
* CCCCCCCCCCC(O)C1C=CC2C(=O)NC(=O)C2N1Nc1ccc(Cl)cc1Cl (stereo not given) | inactive
* NCCCCCNC(=O)[C@H]1C[C@H]2C(=O)N3CCC[C@H]3C(=O)N2[C@H]1c1ccc(O)cc1 | inactive
* O=C1NC(=O)C2C1C=CC(C(O)C1CC=CCC1)N2Nc1ccccn1 (stereo not given) | inactive
* CC(C)[Si](C#CCCCC#N)(O[C@H](c1ccccc1)c1cn(Cc2cccc(Cl)c2)nn1)C(C)C | inactive
* CN1C(=O)C2C=CC(C(O)c3ccc(F)cc3)N(N(c3ccccc3)c3ccccc3)C2C1=O (stereo not given) | inactive

Where do these numbers come from? They come from PubChem BioAssay.
